Source: patent US20240400614A1

Documented % cleavage MMP-2 t = 60 min across a set of sequences
Molecular target: MMP-2 (Homo sapiens)
Construct: purchased SIGMA PF023
Sequence (P08253 110-660): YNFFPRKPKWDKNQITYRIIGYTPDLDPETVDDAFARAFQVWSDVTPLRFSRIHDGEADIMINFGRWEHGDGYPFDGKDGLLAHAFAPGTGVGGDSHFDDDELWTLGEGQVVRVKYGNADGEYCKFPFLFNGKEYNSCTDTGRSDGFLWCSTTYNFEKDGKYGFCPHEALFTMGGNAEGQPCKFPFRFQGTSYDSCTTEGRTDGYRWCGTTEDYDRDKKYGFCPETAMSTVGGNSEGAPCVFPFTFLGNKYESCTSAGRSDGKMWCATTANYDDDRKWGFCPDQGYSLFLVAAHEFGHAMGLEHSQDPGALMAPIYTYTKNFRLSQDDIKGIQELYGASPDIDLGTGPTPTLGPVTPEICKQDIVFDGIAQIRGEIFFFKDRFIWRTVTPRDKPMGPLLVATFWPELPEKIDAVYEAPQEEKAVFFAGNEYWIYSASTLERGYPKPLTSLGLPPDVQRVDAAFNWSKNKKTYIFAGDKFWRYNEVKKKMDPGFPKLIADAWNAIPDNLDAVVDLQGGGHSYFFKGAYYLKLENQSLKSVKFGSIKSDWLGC
Assay: FRET peptide cleavage efficiency with MMP-2
Assay type: biochemical
Conditions: pH 6.5; t = 60 min (Table 7)
Square brackets hold non-standard residues; d marks the D form. Ends that are not written are not given here. Tyr(3-NO2) = N[C@@H](Cc1ccc(O)c([N+](=O)[O-])c1)C(=O)O; 2Abz = Nc1ccccc1C(=O)O
Property Measured: % cleavage MMP-2 t = 60 min

Primary Sequence: SSRGRRGPYMLQG ([2Abz]SSRGRRGPYMLQG[Tyr(3-NO2)]-NH2) [LNK021]
Measurement Target: MMP-2 (Homo sapiens)
Property Measured: % cleavage MMP-2 t = 60 min
Result: 64%
//
Primary Sequence: SGRVAGLVG ([2Abz]SGRVAGLVG[Tyr(3-NO2)]-NH2) [LNK016]
Measurement Target: MMP-2 (Homo sapiens)
Property Measured: % cleavage MMP-2 t = 60 min
Result: 100%
//
Primary Sequence: SSRGPYMLQG ([2Abz]SSRGPYMLQG[Tyr(3-NO2)]-NH2) [LNK022]
Measurement Target: MMP-2 (Homo sapiens)
Property Measured: % cleavage MMP-2 t = 60 min
Result: 74%
//
Primary Sequence: SGRVLRKAGPANLVG ([2Abz]SGRVLRKAGPANLVG[Tyr(3-NO2)]-NH2) [LNK014]
Measurement Target: MMP-2 (Homo sapiens)
Property Measured: % cleavage MMP-2 t = 60 min
Result: 100%
//
Primary Sequence: SGRVANLVG (not fully specified (N-terminus, C-terminus)) [LNK017]
Measurement Target: MMP-2 (Homo sapiens)
Property Measured: % cleavage MMP-2 t = 60 min
Result: 100%
//
Primary Sequence: SGRVLRKAGPQPLVD ([2Abz]SGRVLRKAGPQPLVD[Tyr(3-NO2)]-NH2) [LNK003]
Measurement Target: MMP-2 (Homo sapiens)
Property Measured: % cleavage MMP-2 t = 60 min
Result: 39%
//
Primary Sequence: RQRRSPLGLAG ([2Abz]RQRRSPLGLAG[Tyr(3-NO2)]-NH2) [LNK010]
Measurement Target: MMP-2 (Homo sapiens)
Property Measured: % cleavage MMP-2 t = 60 min
Result: 100%
